Reported pIC50 values follow for various binders
- SYSTEM_TESTED: human α4β7 integrin (human), P13612
- ASSAY_INFO: inhibition of HUT 78 cell adhesion to murine MAdCAM-1/mCk
pIC50: −log10 of the molar value. Bridge positions count the residues as written; N and C are the ends. Ends that are not written are not given here.

- BINDER: "Ac-WRGLDT (not fully specified (C-terminus); printed as Ac-Trp-Arg-Gly-Leu-Asp-Thr) [Ac-Trp-Arg-Gly-Leu-Asp-Thr]"
  pIC50: 3.14
- BINDER: "Ac-LFTSL (not fully specified (C-terminus); printed as Ac-Leu-Phe-Thr-Ser-Leu) [Ac-Leu-Phe-Thr-Ser-Leu]"
  pIC50: 3.52
- BINDER: "Ac-LDASL (not fully specified (C-terminus); printed as Ac-Leu-Asp-Ala-Ser-Leu) [Ac-Leu-Asp-Ala-Ser-Leu]"
  pIC50: 3.00
- BINDER: "Ac-CLDTSLC (disulfide 1-7) [Ac-Cys*-Leu-Asp-Thr-Ser-Leu-Cys*]"
  pIC50: 3.99
- BINDER: "Ac-LETSL (not fully specified (C-terminus); printed as Ac-Leu-Glu-Thr-Ser-Leu) [Ac-Leu-Glu-Thr-Ser-Leu]"
  pIC50: 4.22
